# Tested on: U251 CNS
# EXPERIMENTAL_DETAILS: NCI tumour cell line growth inhibition, 48 h
Readings of TGI for the listed compounds
MEASURE: TGI

{"COMPOUND": "COc1cc2c(cc1OC)C/C(=N\\O)c1cc(OC)c(OC)cc1/C=C\\2", "EXPERIMENTAL_SYSTEM": "U251 CNS", "ASSAY_RESULT": "> 41.1 µM"}
{"COMPOUND": "Cc1cc(C(=O)NOCCO)c(Nc2ccc(I)cc2F)n(C)c1=O", "EXPERIMENTAL_SYSTEM": "U251 CNS", "ASSAY_RESULT": "> 100 µM"}
{"COMPOUND": "Cc1nc2cc3[nH]c4ccccc4c(=O)c3cc2s1", "EXPERIMENTAL_SYSTEM": "U251 CNS", "ASSAY_RESULT": "> 100 µM"}
{"COMPOUND": "Cc1[nH]c(-c2ccccc2)c(O)c1C(=O)OC1CC(C)CCC1C(C)C (centres undefined)", "EXPERIMENTAL_SYSTEM": "U251 CNS", "ASSAY_RESULT": "28.9 µM"}
{"COMPOUND": "CN1CN(c2ccccc2)C2(CCN(C(=O)OC(C)(C)C)CC2)C1=O", "EXPERIMENTAL_SYSTEM": "U251 CNS", "ASSAY_RESULT": "> 100 µM"}
{"COMPOUND": "CC(C)C(N=C1CC2CCC1(C(=O)Nc1ccccc1O)C2(C)C)c1ccccc1 (centres undefined)", "EXPERIMENTAL_SYSTEM": "U251 CNS", "ASSAY_RESULT": "> 10 µM"}
{"COMPOUND": "O=[N+]([O-])c1cc(-c2ccc([As](=O)(O)O)cc2)ccc1[As](=O)(O)O", "EXPERIMENTAL_SYSTEM": "U251 CNS", "ASSAY_RESULT": "> 100 µM"}
{"COMPOUND": "COC(=O)C1(N2CCOCC2)CCC([C@@H](c2ccccc2)C(C)[N+](=O)[O-])C1 (some centres undefined)", "EXPERIMENTAL_SYSTEM": "U251 CNS", "ASSAY_RESULT": "> 100 µM"}
{"COMPOUND": "Cc1cc(S(=O)(=O)Nc2nc3ccccc3s2)c(SCc2ccccc2)cc1Cl", "EXPERIMENTAL_SYSTEM": "U251 CNS", "ASSAY_RESULT": "26.4 µM"}
{"COMPOUND": "C[C@]12CC[C@@H]3c4cc(C=O)c(OCc5ccccc5)cc4CC[C@H]3[C@@H]1CCC2OCc1ccccc1 (some centres undefined)", "EXPERIMENTAL_SYSTEM": "U251 CNS", "ASSAY_RESULT": "> 100 µM"}
{"COMPOUND": "NC1=NN(c2ccccc2)C(=O)C1/C(=N\\NC(=O)c1cc2ccccc2cc1O)C(=O)Nc1ccc(Cl)c(Cl)c1 (centres undefined)", "EXPERIMENTAL_SYSTEM": "U251 CNS", "ASSAY_RESULT": "> 100 µM"}
{"COMPOUND": "CC(C)(C)c1ccc(OCCOc2ccc(C(C)(C)C)cc2NC=O)c(NC=O)c1", "EXPERIMENTAL_SYSTEM": "U251 CNS", "ASSAY_RESULT": "34.7 µM"}
{"COMPOUND": "Nc1ccc2ncc(NCc3ccc(F)cc3)nc2c1", "EXPERIMENTAL_SYSTEM": "U251 CNS", "ASSAY_RESULT": "> 100 µM"}
{"COMPOUND": "Clc1ccc(Nc2nnc(COc3ccccc3)c3ccccc23)cc1", "EXPERIMENTAL_SYSTEM": "U251 CNS", "ASSAY_RESULT": "7.47 µM"}
{"COMPOUND": "CC(C)C(C=O)C(O)(C(F)(F)F)C(F)(F)F (centres undefined)", "EXPERIMENTAL_SYSTEM": "U251 CNS", "ASSAY_RESULT": "> 100 µM"}
{"COMPOUND": "O=C(C#Cc1ccccc1)N1CCCCC1", "EXPERIMENTAL_SYSTEM": "U251 CNS", "ASSAY_RESULT": "> 100 µM"}
{"COMPOUND": "COC1C[C@H](O[C@@H]2C[C@H](O[C@@H]3C[C@H](O[C@@H]4C(=O)c5c(cc6cc(O[C@H]7C[C@@H](O[C@H]8C[C@@H](O)[C@H](O)C(C)O8)[C@H](O)C(C)O7)c(C)c(O)c6c5O)C[C@H]4C(OC)C(=O)[C@@H](O)[C@@H](C)O)OC(C)[C@H]3O)OC(C)[C@@H]2O)OC(C)[C@@H]1O (some centres undefined)", "EXPERIMENTAL_SYSTEM": "U251 CNS", "ASSAY_RESULT": "29.6 µM"}
{"COMPOUND": "O/N=C1/C(=C/c2ccc(Br)cc2)CCCC1C(NO)c1ccc(Br)cc1 (centres undefined)", "EXPERIMENTAL_SYSTEM": "U251 CNS", "ASSAY_RESULT": "45.3 µM"}
{"COMPOUND": "COc1cc2cc(C(=O)Nc3ccccc3)c(N)nc2cc1OC", "EXPERIMENTAL_SYSTEM": "U251 CNS", "ASSAY_RESULT": "> 100 µM"}
